Test system: KRAS-mutant PDC tumor spheroid with HUVEC/MSC, viability;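 note: spheroids exposed to agents for seven days before reading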
Assay: Anticancer human tumor 327498-153-R-J2-PDC patient-derived uterine carcinosarcoma cell line growth inhibition [KRAS2]
Conditions: curve of first compound; second compound 3.16 µM
Excerpt: Multicellular complex tumor spheroid response to RAS pathway inhibitors in combination with a targeted agents in patient-derived cell lines with oncogenic KRAS variants from multiple cancer types A high-throughput screen of multi-cell type tumor spheroids was designed to identify active combinations of targeted small molecules and KRAS pathway inhibitors. […] Compounds. […] If the clinical Cmax for an agent had not been determined, the highest concentration tested was 10 microM. […]
EXPERIMENTAL ENDPOINT: IC50

// known answers, use as guide
INSERT INTO results (compound, experimental_endpoint, value_reported) VALUES
  ('CCN1CCN(Cc2ccc(Nc3ncc(F)c(-c4cc(F)c5nc(C)n(C(C)C)c5c4)n3)nc2)CC1 + C=CC(=O)N1CCN(c2nc(OCC3CCCN3C)nc3c2CCN(c2cccc4cccc(C)c24)C3)CC1CC#N', 'IC50', '< 3.16 nM'),
  ('COc1cc2nccc(Oc3ccc(NC(=O)C4(C(=O)Nc5ccc(F)cc5)CC4)cc3)c2cc1OC + CNCc1ccccc1-c1csc(C(C)Nc2nc(C)nc3cc(OC)c(OC)cc23)c1', 'IC50', '< 31.6 nM'),
  ('CCNC(=O)CC1N=C(c2ccc(Cl)cc2)c2cc(OC)ccc2-n2c(C)nnc21 (stereo unspecified) + CNCc1ccccc1-c1csc(C(C)Nc2nc(C)nc3cc(OC)c(OC)cc23)c1', 'IC50', '< 31.6 nM'),
  ('CC1(C)CCC(CN2CCN(c3ccc(C(=O)NS(=O)(=O)c4ccc(NCC5CCOCC5)c([N+](=O)[O-])c4)c(Oc4cnc5[nH]ccc5c4)c3)CC2)=C(c2ccc(Cl)cc2)C1 + C=CC(=O)N1CCN(c2nc(OCC3CCCN3C)nc3c2CCN(c2cccc4cccc(C)c24)C3)CC1CC#N', 'IC50', '< 31.6 nM'),
  ('COC(=O)c1ccc2c(C(=Nc3ccc(N(C)C(=O)CN4CCN(C)CC4)cc3)c3ccccc3)c(O)[nH]c2c1 + CC1OCC2(CCN(c3cnc(Sc4ccnc(N)c4Cl)c(N)n3)CC2)C1N', 'IC50', '< 31.6 nM');

Shift focus to the following entry.
Which IC50 is reported for this compound? Cn1ncnc1[C@H]1c2n[nH]c(=O)c3cc(F)cc(c23)N[C@@H]1c1ccc(F)cc1 + CC1OCC2(CCN(c3cnc(Sc4ccnc(N)c4Cl)c(N)n3)CC2)C1N
< 0.316 nM
